Tested on: protein-protein interaction between Kras and SOS1 (biotin-tagged human Kras loaded with GDP, His-tagged human SOS1) (Homo sapiens (Human), UniProt P01116, G12D)
Test protocol: Protein-protein interaction inhibition between Kras and SOS1 (KrasG12D-SOS PPI) using AlphaScreen
Type: biochemical
Reported conditions: AlphaScreen; biotin-tagged human Kras loaded with GDP, His-tagged human SOS1; read-out: KRAS G12D-SOS PPI IC50
Numbered stars: 1 amine (or outer) side, 2 acyl side, 3 side chain; on linkers, the order of the positions; unused ones are H or OH. Bridge positions count the residues as written; N and C are the ends. Square brackets hold non-standard residues; d marks the D form. Peptide text beside a SMILES is read from it. * marks the point of attachment. hPhe(3,5-F2-4-CF3) = N[C@@H](CCc1cc(F)c(C(F)(F)F)c(F)c1)C(=O)O; hPhe(3-Cl-4-CF3) = N[C@@H](CCc1ccc(C(F)(F)F)c(Cl)c1)C(=O)O; NMePhe(4-CF3) = CN[C@@H](Cc1ccc(C(F)(F)F)cc1)C(=O)O; NMedβ3hAla = C[C@H](CC(=O)[*:2])N(C)[*:1]; NMeCha = CN[C@@H](CC1CCCCC1)C(=O)O; cisHyp = O=C(O)[C@@H]1C[C@H](O)CN1; Hyp = O=C(O)[C@@H]1C[C@@H](O)CN1; NMeChg = CN[C@H](C(=O)O)C1CCCCC1; NMeD = CN[C@@H](CC(=O)O)C(=O)O; NMeL = CN[C@@H](CC(C)C)C(=O)O; NMeV = CN[C@H](C(=O)O)C(C)C; NMeS = CN[C@@H](CO)C(=O)O; NMeA = CN[C@@H](C)C(=O)O; Piperidide = C1CCN(*)CC1; Ac5c = NC1(C(=O)O)CCCC1; Aze = O=C(O)[C@@H]1CCN1; Ethyl(2,2-F2) = FC(F)C*; Ac4c = NC1(C(=O)O)CCC1; Isopentyl = CC(C)CC*; Sar = CNCC(=O)O
List of IC50 values.
Metric: IC50 (nM)

molecule="CCO[C@@H]1C[C@H]2C(=O)NC3(CCC3)C(=O)N(C)[C@@H](C3CCCCC3)C(=O)N(C)[C@H](C)CC(=O)N(C)[C@@H](CC(C)C)C(=O)N[C@@H]([C@@H](C)CC)C(=O)N(C)[C@@H](C)C(=O)N3CC[C@H]3C(=O)N(C)[C@@H](Cc3ccc(C(F)(F)F)cc3)C(=O)N(C)CC(=O)N[C@@H](CCc3cc(F)c(C(F)(F)F)c(F)c3)C(=O)N2C1 [Compound 365] (cyclo([Ac4c][NMeChg][NMedβ3hAla][NMeL]I[NMeA][Aze][NMePhe(4-CF3)][Sar][hPhe(3,5-F2-4-CF3)][Hyp](Et)))" measure_unit=nM value_measured=38
molecule="CC[C@H](C)[C@@H]1NC(=O)[C@H](CC(C)C)N(C)C(=O)C[C@@H](C(=O)N2CCCCC2)N(C)C(=O)[C@H](C2CCCCC2)N(C)C(=O)C2(CCCC2)NC(=O)[C@@H]2C[C@H](OCC(F)F)CN2C(=O)[C@H](CCc2ccc(C(F)(F)F)c(Cl)c2)NC(=O)CN(C)C(=O)[C@H](CC2CCCCC2)N(C)C(=O)CN(C)C(=O)CN(C)C1=O [Compound 2123] ([NMeL]I[Sar][Sar][NMeCha][Sar][hPhe(3-Cl-4-CF3)][cisHyp](Ethyl(2,2-F2))[Ac5c][NMeChg][NMeD]-Piperidide; lactam N-11)" measure_unit=nM value_measured=1.5
molecule="CC[C@H](C)[C@@H]1NC(=O)[C@H](CC(C)C)N(C)C(=O)C[C@@H](C(=O)N2CCCCC2)NC(=O)[C@H](C(C)C)N(C)C(=O)C2(CCCC2)NC(=O)[C@@H]2CCCN2C(=O)[C@H](CCc2ccc(C(F)(F)F)c(Cl)c2)NC(=O)CN(C)C(=O)[C@H](CC2CCCCC2)N(C)C(=O)[C@@H]2CCN2C(=O)[C@H](C)N(C)C1=O [Compound 1353] ([NMeL]I[NMeA][Aze][NMeCha][Sar][hPhe(3-Cl-4-CF3)]P[Ac5c][NMeV]D-Piperidide; lactam N-11)" measure_unit=nM value_measured=11
molecule="CC[C@H](C)[C@@H]1NC(=O)[C@H](COCCC(C)C)N(C)C(=O)C[C@@H](C(=O)N2CCCCC2)N(C)C(=O)[C@H](C(C)C)N(C)C(=O)C2(CCCC2)NC(=O)[C@@H]2CCCN2C(=O)[C@H](CCc2ccc(C(F)(F)F)c(Cl)c2)NC(=O)CN(C)C(=O)[C@H](CC2CCCCC2)N(C)C(=O)[C@@H]2CCN2C(=O)[C@H](C)N(C)C1=O [Compound 661] ([NMeS](Isopentyl)I[NMeA][Aze][NMeCha][Sar][hPhe(3-Cl-4-CF3)]P[Ac5c][NMeV][NMeD]-Piperidide; lactam N-11)" measure_unit=nM value_measured=13

----------
Tested on: protein-protein interaction between Kras and SOS1 (biotin-tagged human Kras loaded with GDP, His-tagged human SOS1) (Homo sapiens (Human), UniProt P01116, G12D)
Test protocol: Protein-protein interaction inhibition between Kras and SOS1 (KrasG12D-SOS PPI) using AlphaScreen
Type: biochemical
Reported conditions: AlphaScreen; biotin-tagged human Kras loaded with GDP, His-tagged human SOS1; read-out: KRAS G12D-SOS PPI IC50
Square brackets hold non-standard residues; d marks the D form. Peptide text beside a SMILES is read from it. hPhe(3-Cl-4-CF3) = N[C@@H](CCc1ccc(C(F)(F)F)c(Cl)c1)C(=O)O; NMeCha = CN[C@@H](CC1CCCCC1)C(=O)O; NMeGly(cPr) = CN[C@H](C(=O)O)C1CC1; NMeL = CN[C@@H](CC(C)C)C(=O)O; NMeV = CN[C@H](C(=O)O)C(C)C; d(β3hA) = C[C@@H](N)CC(=O)O; Ac5c = NC1(C(=O)O)CCCC1; Aze = O=C(O)[C@@H]1CCN1; Sar = CNCC(=O)O
Metric: IC50 (nM)

compound="CC[C@H](C)[C@@H]1NC(=O)[C@H](CC(C)C)N(C)C(=O)C[C@@H](C)NC(=O)[C@H](C(C)C)N(C)C(=O)C2(CCCC2)NC(=O)[C@@H]2CCCN2C(=O)[C@H](CCc2ccc(C(F)(F)F)c(Cl)c2)NC(=O)CN(C)C(=O)[C@H](CC2CCCCC2)N(C)C(=O)[C@@H]2CCN2C(=O)[C@H](C2CC2)N(C)C1=O [Compound 1586] (cyclo([Ac5c][NMeV][d(β3hA)][NMeL]I[NMeGly(cPr)][Aze][NMeCha][Sar][hPhe(3-Cl-4-CF3)]P))" metric=IC50 measure_unit=nM value_measured=59

----------
Tested on: protein-protein interaction between Kras and SOS1 (biotin-tagged human Kras loaded with GDP, His-tagged human SOS1) (Homo sapiens (Human), UniProt P01116, G12D)
Test protocol: Protein-protein interaction inhibition between Kras and SOS1 (KrasG12D-SOS PPI) using AlphaScreen;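 also: kras produced in E. coli, Ni-coupled donor beads and streptavidin acceptor beads, excitation 680 nm with emission detected at 520–620 nm via singlet oxygen transfer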
Format: biochemical
Reported conditions: AlphaScreen; biotin-tagged human Kras loaded with GDP, His-tagged human SOS1; read-out: KRAS G12D-SOS PPI IC50
pIC50: −log10 of the molar value. Numbered stars: 1 amine (or outer) side, 2 acyl side, 3 side chain; on linkers, the order of the positions; unused ones are H or OH. Bridge positions count the residues as written; N and C are the ends. Square brackets hold non-standard residues; d marks the D form. Peptide text beside a SMILES is read from it. * marks the point of attachment. hPhe(3-Cl-4-CF3) = N[C@@H](CCc1ccc(C(F)(F)F)c(Cl)c1)C(=O)O; NEtPhe(4-CF3) = CCN[C@@H](Cc1ccc(C(F)(F)F)cc1)C(=O)O; NMePhe(4-Me) = CN[C@@H](Cc1ccc(C)cc1)C(=O)O; NMedβ3hAla = C[C@H](CC(=O)[*:2])N(C)[*:1]; NMeGly(cPent) = CN[C@H](C(=O)O)C1CCCC1; Pro(4,4-F2) = O=C(O)[C@@H]1CC(F)(F)CN1; X132 = O=C(CN(CCOCC(F)(F)F)[*:1])[*:2]; NMeCha = CN[C@@H](CC1CCCCC1)C(=O)O; Hyp = O=C(O)[C@@H]1C[C@@H](O)CN1; NEtLeu = CCN[C@@H](CC(C)C)C(=O)O; NMeChg = CN[C@H](C(=O)O)C1CCCCC1; NMeD = CN[C@@H](CC(=O)O)C(=O)O; NMeL = CN[C@@H](CC(C)C)C(=O)O; NMehSer = CN[C@@H](CCO)C(=O)O; NMeV = CN[C@H](C(=O)O)C(C)C; Azetidin(1-yl) = C1CN(*)C1; NMeA = CN[C@@H](C)C(=O)O; NMeAib = CNC(C)(C)C(=O)O; Piperidide = C1CCN(*)CC1; dNMeA = CN[C@H](C)C(=O)O; Ac5c = NC1(C(=O)O)CCCC1; Aze = O=C(O)[C@@H]1CCN1; Ac4c = NC1(C(=O)O)CCC1; Sar = CNCC(=O)O; Propyl = CCC*
Would you mind labelling by pIC50? At or over 8 is class 1, under is class 0.

molecule="CC[C@H](C)[C@@H]1NC(=O)[C@H](C)N(C)C(=O)C[C@@H](C)N(C)C(=O)[C@H](CC(C)C)NC(=O)C(C)(C)N(C)C(=O)[C@H](CC(C)C)NC(=O)[C@H](CCc2ccc(C(F)(F)F)c(Cl)c2)NC(=O)[C@@H](C)N(C)C(=O)[C@H](Cc2ccc(C)cc2)N(C)C(=O)CN(C)C(=O)CN(C)C1=O [Compound 1381] (cyclo(I[Sar][Sar][NMePhe(4-Me)][dNMeA][hPhe(3-Cl-4-CF3)]L[NMeAib]L[NMedβ3hAla][NMeA]))" class_assignment="class 0"
molecule="CCO[C@@H]1C[C@H]2C(=O)NC3(CCC3)C(=O)N(C)[C@@H](C3CCCC3)C(=O)N(C)[C@H](C)CC(=O)N(C)[C@@H](CC(C)C)C(=O)N[C@@H]([C@@H](C)CC)C(=O)N(C)[C@@H](C)C(=O)N3CC[C@H]3C(=O)N(CC)[C@@H](Cc3ccc(C(F)(F)F)cc3)C(=O)N(C)CC(=O)N[C@@H](CCc3ccc(C(F)(F)F)c(Cl)c3)C(=O)N2C1 [Compound 594] (cyclo([Ac4c][NMeGly(cPent)][NMedβ3hAla][NMeL]I[NMeA][Aze][NEtPhe(4-CF3)][Sar][hPhe(3-Cl-4-CF3)][Hyp](Et)))" class_assignment="class 1"
molecule="CC[C@H](C)[C@@H]1NC(=O)[C@H](CC(C)C)N(CC)C(=O)C[C@@H](C(=O)N2CCC2)N(C)C(=O)[C@H](C2CCCC2)N(C)C(=O)C2(CCCC2)NC(=O)[C@@H]2CCCN2C(=O)[C@H](CCc2ccc(C(F)(F)F)c(Cl)c2)NC(=O)CN(C)C(=O)[C@H](CC2CCCCC2)N(C)C(=O)[C@@H]2CCN2C(=O)[C@H](C)NC1=O [Compound 1262] ([NEtLeu]IA[Aze][NMeCha][Sar][hPhe(3-Cl-4-CF3)]P[Ac5c][NMeGly(cPent)][NMeD]-{Azetidin(1-yl)}; lactam N-11)" class_assignment="class 1"
molecule="CC[C@H](C)[C@@H]1NC(=O)[C@H](CC(C)C)N(C)C(=O)C[C@@H](C(=O)N2CCCCC2)N(C)C(=O)[C@H](C2CCCCC2)N(C)C(=O)C2(CCCC2)NC(=O)CN(CCOCC(F)(F)F)C(=O)[C@H](CCc2ccc(C(F)(F)F)c(Cl)c2)NC(=O)CN(C)C(=O)[C@H](CC2CCCCC2)N(C)C(=O)CN(C)C(=O)CN(C)C1=O [Compound 2024] ([NMeL]I[Sar][Sar][NMeCha][Sar][hPhe(3-Cl-4-CF3)][X132][Ac5c][NMeChg][NMeD]-Piperidide; lactam N-11 (inferred); C-terminus assumed)" class_assignment="class 1"
molecule="CC[C@H](C)[C@@H]1NC(=O)[C@H](CC(C)C)N(C)C(=O)C[C@@H](C)N(C)C(=O)[C@H](C2CCCCC2)N(C)C(=O)C2(CCC2)NC(=O)[C@@H]2CC(F)(F)CN2C(=O)[C@H](CCc2ccc(C(F)(F)F)c(Cl)c2)NC(=O)CN(C)C(=O)[C@H](Cc2ccc(C(F)(F)F)cc2)N(CC)C(=O)[C@@H]2CCN2C(=O)[C@H](C)N(C)C1=O [Compound 345] (cyclo([Ac4c][NMeChg][NMedβ3hAla][NMeL]I[NMeA][Aze][NEtPhe(4-CF3)][Sar][hPhe(3-Cl-4-CF3)][Pro(4,4-F2)]))" class_assignment="class 0"
molecule="CC[C@H](C)[C@@H]1NC(=O)[C@H](CC(C)C)N(C)C(=O)C[C@@H](C(=O)N2CCCCC2)N(C)C(=O)[C@H](C2CCCCC2)N(C)C(=O)C2(CCCC2)NC(=O)[C@H](CCOC)N(C)C(=O)[C@H](CCc2ccc(C(F)(F)F)c(Cl)c2)NC(=O)CN(C)C(=O)[C@H](CC2CCCCC2)N(C)C(=O)CN(C)C(=O)CN(C)C1=O [Compound 2168] ([NMeL]I[Sar][Sar][NMeCha][Sar][hPhe(3-Cl-4-CF3)][NMehSer](Me)[Ac5c][NMeChg][NMeD]-Piperidide; lactam N-11)" class_assignment="class 1"
molecule="CCCOC[C@@H]1NC(=O)[C@H](CC(C)C)N(C)C(=O)C[C@@H](C(=O)N2CCCCC2)N(C)C(=O)[C@H](C(C)C)N(C)C(=O)C2(CCCC2)NC(=O)[C@@H]2CCCN2C(=O)[C@H](CCc2ccc(C(F)(F)F)c(Cl)c2)NC(=O)CN(C)C(=O)[C@H](CC2CCCCC2)N(C)C(=O)[C@@H]2CCN2C(=O)[C@H](C)N(C)C1=O [Compound 1831] ([NMeL]S(Propyl)[NMeA][Aze][NMeCha][Sar][hPhe(3-Cl-4-CF3)]P[Ac5c][NMeV][NMeD]-Piperidide; lactam N-11)" class_assignment="class 0"
